GI50 listing for selected compounds.
- Tested on: U373 MG
- assay procedure: Growth inhibition of vehicle-transfected human U373 cells after 7 days by MTT assay
- Assay type: functional, U-373MG ATCC
- applied conditions: 168 h

Before answering, review these 8 worked examples.
CC(c1ccc(Br)cc1)n1nnc2c(C(N)=O)ncn2c1=O (racemic); > 50 µM
Cn1nnc2c(C(N)=O)ncn2c1=O [TEMOZOLOMIDE]; 68 µM
COc1ccc(Cn2nnc3c(C(N)=O)ncn3c2=O)c(OC)c1; > 50 µM
NC(=O)c1ncn2c(=O)n(Cc3ccco3)nnc12; > 50 µM
NC(=O)c1nc[nH]c1N/N=N/Cc1cccs1; > 50 µM
C[Si](C)(C)Cn1nnc2c(C(N)=O)ncn2c1=O; 45.6 µM
Cc1cc(Cn2nnc3c(C(N)=O)ncn3c2=O)on1; > 50 µM
NC(=O)c1ncn2c(=O)n(Cc3c[nH]nn3)nnc12; > 50 µM

Summary for this compound, COc1ccccc1Cn1nnc2c(C(N)=O)ncn2c1=O : GI50 is > 50 µM

CC[C@@H](c1ccccc1)n1nnc2c(C(N)=O)ncn2c1=O yielded GI50 of > 50 µM

GI50 measured on Cc1noc(Cn2nnc3c(C(N)=O)ncn3c2=O)n1 = > 50 µM

According to the records, this compound NC(=O)c1ncn2c(=O)n(CCc3ccccc3)nnc12 displays GI50 of > 50 µM
